assay_text: Azithromycin solubility as a function of pH
Format: physicochemical
experimental_context: pH 6.65, aqueous buffer; read-out: Azithromycin Solubility
measured_quantity: solubility
Output should be the measured figure followed by the unit it is expressed in.

In: Would you kindly share the measured solubility for CC[C@H]1OC(=O)[C@H](C)[C@@H](O[C@H]2C[C@@](C)(OC)[C@@H](O)[C@H](C)O2)[C@H](C)[C@@H](O[C@@H]2O[C@H](C)C[C@H](N(C)C)[C@H]2O)[C@](C)(O)C[C@@H](C)CN(C)[C@H](C)[C@@H](O)[C@]1(C)O [Azithromycin, azithromycin] ?
Out: 140 mg/mL

meta.source: patent US6984403B2
